Where these numbers come from: the Human Domainome abundance scans (Beltran et al. 2025)

B1: POU domain, class 3, transcription factor 2, residues 262 to 338; numbered along this chain, P20265 (parent)
chain: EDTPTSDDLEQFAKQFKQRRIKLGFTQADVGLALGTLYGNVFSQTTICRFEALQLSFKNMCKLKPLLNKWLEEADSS

# Variants of: B1
# test.method.notes: abundance fitness (aPCA) (normalised: wild type 0, dead -1); higher = more abundant; growth selection in yeast, the domain comes from the species named
# condition.details: Homo sapiens
Category | rule: reported abundance fitness within range, see category 1 = under -0.3, category 2 = from -0.3 up to -0.006, category 3 = -0.006 and over

# mutation.spec, discrete.label
data = [
    ("G35S", "category 3"),
    ("Y38T", "category 3"),
    ("W70D", "category 1"),
    ("R20Y", "category 1"),
    ("T26S", "category 2"),
    ("S77F", "category 2"),
    ("D75P", "category 2"),
    ("G31Y", "category 2"),
    ("N59Q", "category 3"),
    ("L53P", "category 1"),
    ("A52I", "category 1"),
    ("L55N", "category 1"),
    ("A52G", "category 2"),
    ("R20C", "category 1"),
    ("G24R", "category 1"),
    ("L34Y", "category 1"),
    ("E73H", "category 2"),
    ("C48D", "category 3"),
    ("L67M", "category 3"),
    ("K64D", "category 1"),
    ("K64T", "category 2"),
    ("K58E", "category 3"),
    ("L66H", "category 2"),
    ("K62M", "category 3"),
    ("R20T", "category 1"),
    ("K14F", "category 1"),
    ("L71G", "category 1"),
    ("F57R", "category 3"),
    ("G35Q", "category 3"),
    ("E72Q", "category 3"),
    ("L67A", "category 1"),
    ("E72N", "category 2"),
    ("N40T", "category 2"),
    ("N59M", "category 3"),
    ("K62F", "category 2"),
    ("N68G", "category 3"),
]
